// pKd collected for hCereblon(M1-L442)_hDDB1(M1-H1140) (Homo sapiens (Human), UniProt Q96SW2)
Lab note — pKd values are minus log10 of concentrations in M.

The examples below pair each entry with its known result.
In [3]: df
Out[3]:
                                   compound  reported
0  CC(=O)Nc1cccc(CC(=O)N[C@H]2CCC(=O)NC2=O)c1      7.22
1  CN(C(=O)N1CCc2ccccc21)[C@H]1CCC(=O)NC1=O      7.70
2  Cc1sc2c(c1C)C(c1ccc(Cl)cc1)=N[C@@H](CC(=O)NCCCCCC(=O)N1CC[C@H](C(=O)N[C@H]3CCC(=O)NC3=O)c3ccccc31)c1nnc(C)n1-2      8.00
3  O=C1CC[C@@H](NC(=O)Cc2ccc3c(c2)CC(=O)N3)C(=O)N1      8.52
4  CN1C(=O)CCC(NC(=O)[C@H]2CCCc3ccccc32)C1=O (single isomer, unassigned)      7.34
5  O=C1CC[C@@H](NC(=O)N2CCc3cccnc32)C(=O)N1      8.00
6  O=C1CC[C@@H](NC(=O)[C@@H]2CCCc3ccccc32)C(=O)N1      8.40
7  O=C1CC[C@@H](NC(=O)c2ncc3ccccn23)C(=O)N1      8.52

# query: pKd of entry Cn1nc(C(=O)N[C@H]2CCC(=O)NC2=O)c2c1CCNC2
6.71

# query: pKd of entry O=C1CC[C@H](NC(=O)c2ncc3ccccn23)C(=O)N1
8.40

# query: pKd of entry O=C1CCC(NC(=O)[C@@H]2CCCc3ccccc32)C(=O)N1 (stereo partly drawn)
8.40

# query: pKd of entry O=C1CC[C@@H](NC(=O)C2CCOc3ccccc32)C(=O)N1 (stereo partly drawn)
7.85

# query: pKd of entry CN1CCC(C(=O)N[C@H]2CCC(=O)NC2=O)c2ccccc21 (stereo partly drawn)
8.30

###

// Kd collected for hCereblon(M1-L442)_hDDB1(M1-H1140) (Homo sapiens (Human))
Number only, in nM; omit the unit.

The examples below pair each entry with its known result.
>>> print(df.to_string())
                                   molecule  unitsymbol  reported
0  O=C1CC[C@@H](NC(=O)[C@H]2CCCc3ccccc32)C(=O)N1          nM         6
1  O=C1CCC(NC(=O)C2CCc3ccccc32)C(=O)N1 (single isomer, unassigned; (-))          nM        68

# next molecule below
Please state recorded Kd (tested on hCereblon(M1-L442)_hDDB1(M1-H1140) (Homo sapiens (Human))) of Cn1cc(C(=O)NC2CCC(=O)NC2=O)c2ccccc21 (stereo not shown)
30

###

- testedOn: hCereblon(M1-L442)_hDDB1(M1-H1140) (Homo sapiens (Human), UniProt Q96SW2)
- Sequence (Q96SW2 whole entry): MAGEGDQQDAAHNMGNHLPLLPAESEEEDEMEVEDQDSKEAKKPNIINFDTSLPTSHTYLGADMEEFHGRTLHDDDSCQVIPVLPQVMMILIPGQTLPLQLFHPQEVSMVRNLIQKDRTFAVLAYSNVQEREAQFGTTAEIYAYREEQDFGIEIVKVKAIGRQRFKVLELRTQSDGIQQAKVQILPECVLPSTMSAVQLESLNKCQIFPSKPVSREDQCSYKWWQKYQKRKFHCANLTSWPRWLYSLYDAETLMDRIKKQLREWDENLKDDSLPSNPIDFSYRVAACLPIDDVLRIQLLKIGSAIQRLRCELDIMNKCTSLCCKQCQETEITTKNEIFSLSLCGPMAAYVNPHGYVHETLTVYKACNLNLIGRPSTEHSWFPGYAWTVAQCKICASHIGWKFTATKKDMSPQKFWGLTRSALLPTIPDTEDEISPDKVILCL
- Sequence (Q16531 whole entry partner): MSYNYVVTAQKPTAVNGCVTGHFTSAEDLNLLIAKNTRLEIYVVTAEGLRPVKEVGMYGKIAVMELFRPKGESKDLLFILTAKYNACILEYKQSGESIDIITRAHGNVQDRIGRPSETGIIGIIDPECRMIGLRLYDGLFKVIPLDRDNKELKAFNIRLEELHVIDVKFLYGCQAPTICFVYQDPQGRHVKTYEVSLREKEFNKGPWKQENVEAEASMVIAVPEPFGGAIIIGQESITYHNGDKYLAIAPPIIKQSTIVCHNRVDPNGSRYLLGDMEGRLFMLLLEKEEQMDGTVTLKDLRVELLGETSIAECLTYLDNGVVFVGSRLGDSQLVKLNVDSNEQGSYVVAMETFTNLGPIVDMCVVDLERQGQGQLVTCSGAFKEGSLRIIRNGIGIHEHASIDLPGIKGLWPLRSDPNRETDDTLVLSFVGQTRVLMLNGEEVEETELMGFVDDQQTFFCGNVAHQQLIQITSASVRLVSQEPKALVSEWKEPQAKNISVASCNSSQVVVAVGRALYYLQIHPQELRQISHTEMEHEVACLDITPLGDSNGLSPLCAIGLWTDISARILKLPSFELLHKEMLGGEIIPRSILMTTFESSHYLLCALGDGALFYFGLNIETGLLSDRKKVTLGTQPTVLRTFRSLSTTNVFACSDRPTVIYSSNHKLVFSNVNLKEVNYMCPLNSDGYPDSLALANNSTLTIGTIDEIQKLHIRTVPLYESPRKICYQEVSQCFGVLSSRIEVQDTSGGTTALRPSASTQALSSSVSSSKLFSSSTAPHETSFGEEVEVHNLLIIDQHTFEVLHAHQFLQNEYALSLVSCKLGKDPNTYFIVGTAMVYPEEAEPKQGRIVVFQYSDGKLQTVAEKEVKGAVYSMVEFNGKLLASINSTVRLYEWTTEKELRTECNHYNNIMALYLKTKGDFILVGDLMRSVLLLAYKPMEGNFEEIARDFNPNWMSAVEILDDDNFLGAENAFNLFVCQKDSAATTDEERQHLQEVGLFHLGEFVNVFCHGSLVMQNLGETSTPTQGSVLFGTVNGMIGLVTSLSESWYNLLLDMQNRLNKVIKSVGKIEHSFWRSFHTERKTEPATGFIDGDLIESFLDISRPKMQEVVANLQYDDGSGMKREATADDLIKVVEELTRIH
endpointLabel: pKd
Lab note — pKd values are minus log10 of concentrations in M.

>>> df
                                   compound  endpointlabel  reported
0  O=C1CC[C@@H](NC(=O)C2CCc3ncccc32)C(=O)N1 (some centres unmarked) [Example 20]            pKd      8.52
1  CN(C(=O)N1CCc2cccnc21)C1CCC(=O)NC1=O (centres unmarked) [Example 62]            pKd      7.54
2  O=C1CC[C@H](NC(=O)C2CCc3ncccc32)C(=O)N1 (some centres unmarked) [Example 19]            pKd      9.00
3  O=C1CC[C@H](NC(=O)[C@H]2CCCc3ccccc32)C(=O)N1 [Example 27]            pKd      8.52
4  O=C1CC[C@@H](NC(=O)Cc2cccnc2)C(=O)N1 [Example 63]            pKd      7.72

# query: pKd of entry CC(=O)Nc1cccc(CC(=O)N[C@@H]2CCC(=O)NC2=O)c1 [Example 67]
8.52

# query: pKd of entry O=C1CC[C@H](NC(=O)N2CCCc3cccnc32)C(=O)N1 [Example 30]
8.40

# query: pKd of entry O=C1CC[C@@H](NC(=O)C2CCNc3ccccc32)C(=O)N1 (some centres unmarked) [Example 39]
7.72

# query: pKd of entry O=C1CC[C@H](NC(=O)c2c[nH]c3ccccc23)C(=O)N1 [Example 17]
7.85

# query: pKd of entry O=C1CC[C@@H](NC(=O)c2csc3ccccc23)C(=O)N1 [Example 24]
8.05

###

# pKd per record follows
- testedOn: hCereblon(M1-L442)_hDDB1(M1-H1140) (Homo sapiens (Human), UniProt Q96SW2)
Lab note — pKd values are minus log10 of concentrations in M.

The examples below pair each entry with its known result.
In [3]: df
Out[3]:
                                   compound  reported
0  O=C1CC[C@H](NC(=O)Cc2ccc3c(c2)CC(=O)N3)C(=O)N1 [Example 69]      7.82
1  O=C1CC[C@H](NC(=O)Cc2cccnc2)C(=O)N1 [Example 61]      6.01

# next compound below
Please state recorded pKd (tested on hCereblon(M1-L442)_hDDB1(M1-H1140) (Homo sapiens (Human), UniProt Q96SW2)) of O=C1CC[C@H](NC(=O)c2ccc3ccccn23)C(=O)N1 [Example 52]
8.22
